Molecular target: P-glycoprotein 1 (P-gp) (Homo sapiens)
Construct: its P-gp overexpressing variant (SW1573/PGP); endogenous in cells; host or cells: SW1573 and SW1573/PGP (SW1573/Pgp) human non-small cell lung cancer cells, provided by Dr. G. J. Peters (Amsterdam)
Sequence (P08183 whole entry): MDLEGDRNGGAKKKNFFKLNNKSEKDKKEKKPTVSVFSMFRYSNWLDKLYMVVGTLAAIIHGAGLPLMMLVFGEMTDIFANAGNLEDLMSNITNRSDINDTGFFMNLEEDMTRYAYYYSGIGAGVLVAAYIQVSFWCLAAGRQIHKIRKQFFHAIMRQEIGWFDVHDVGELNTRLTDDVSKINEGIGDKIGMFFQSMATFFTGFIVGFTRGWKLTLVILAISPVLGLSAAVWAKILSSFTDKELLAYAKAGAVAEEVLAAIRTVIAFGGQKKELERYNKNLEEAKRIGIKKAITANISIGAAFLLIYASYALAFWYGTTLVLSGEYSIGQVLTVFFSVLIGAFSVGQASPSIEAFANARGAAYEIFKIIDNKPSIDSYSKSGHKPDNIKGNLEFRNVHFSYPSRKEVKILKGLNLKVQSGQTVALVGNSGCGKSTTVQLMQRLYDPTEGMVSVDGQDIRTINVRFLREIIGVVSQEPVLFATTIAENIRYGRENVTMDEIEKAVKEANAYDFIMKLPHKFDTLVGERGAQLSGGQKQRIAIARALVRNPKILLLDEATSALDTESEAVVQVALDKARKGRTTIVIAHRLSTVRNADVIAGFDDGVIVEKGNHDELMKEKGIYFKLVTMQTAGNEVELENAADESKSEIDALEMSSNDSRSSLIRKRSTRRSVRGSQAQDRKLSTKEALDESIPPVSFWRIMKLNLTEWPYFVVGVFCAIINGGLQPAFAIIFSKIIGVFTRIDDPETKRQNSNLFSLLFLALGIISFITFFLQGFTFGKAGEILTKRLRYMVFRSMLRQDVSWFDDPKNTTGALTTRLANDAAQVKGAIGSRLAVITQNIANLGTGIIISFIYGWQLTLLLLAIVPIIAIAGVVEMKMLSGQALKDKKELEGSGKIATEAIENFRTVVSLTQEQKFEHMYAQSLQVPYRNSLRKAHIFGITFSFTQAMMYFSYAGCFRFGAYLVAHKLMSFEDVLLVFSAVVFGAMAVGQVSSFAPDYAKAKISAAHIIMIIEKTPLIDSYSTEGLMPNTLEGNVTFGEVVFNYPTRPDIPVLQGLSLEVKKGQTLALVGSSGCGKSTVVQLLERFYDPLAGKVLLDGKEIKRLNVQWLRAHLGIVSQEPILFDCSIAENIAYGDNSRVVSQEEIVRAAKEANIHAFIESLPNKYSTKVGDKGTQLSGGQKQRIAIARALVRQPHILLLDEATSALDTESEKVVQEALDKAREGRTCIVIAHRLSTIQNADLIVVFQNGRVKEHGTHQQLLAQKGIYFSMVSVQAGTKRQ
Assay: P-glycoprotein assay (SW1573/PGP vs SW1573, resistance factor)
Type: cell-based
Details: ratio between GI50 values in SW1573/PGP and SW1573 cells, without verapamil

compound	Rf w/o Verapamil
C[C@]12CC[C@H]3[C@@H](CC=C4C[C@@H](O)CC[C@@]43C)[C@@H]1CC[C@@H]2C(=O)/C=C/c1ccccc1 [Compound 2]	1.2
CC[C@]1(O)C[C@@H]2CN(CCc3c([nH]c4ccccc34)[C@@](C(=O)OC)(c3cc4c(cc3OC)N(C)[C@H]3[C@@](O)(C(=O)OC)[C@H](OC(C)=O)[C@]5(CC)C=CCN6CC[C@]43[C@@H]65)C2)C1 [VB, vinblastine, reference compound]	2388
C[C@]12CCC3C(CC=C4C[C@@H](O)CC[C@@]43C)C1CCC2C1=CC(c2ccccc2)NC(=O)N1 (some centres unmarked) [Compound 3b]	1.9
C[C@]12CCC3C(CC=C4C[C@@H](O)CC[C@@]43C)C1CCC2C1=CC(c2ccccc2)NC(=N)N1 (some centres unmarked) [Compound 3a]	1.5
C[C@]12CCC3C(CC=C4C[C@@H](O)CC[C@@]43C)C1CCC2C1=CC(c2ccccc2)NC(=S)N1 (some centres unmarked) [Compound 3c]	3.2
CC1=C2C(CC3C4CC=C5C[C@@H](O)CC[C@]5(C)C4CC[C@]23C)NC(=O)N1 (some centres unmarked) [Compound 7b]	1.5
CC(=O)O[C@H]1C(=O)[C@@]2(C)[C@H]([C@H](OC(=O)c3ccccc3)[C@]3(O)C[C@H](OC(=O)[C@H](O)[C@@H](NC(=O)c4ccccc4)c4ccccc4)C(C)=C1C3(C)C)[C@]1(OC(C)=O)CO[C@@H]1C[C@@H]2O [PTX, Paclitaxel, reference compound]	128
CC1=C2C(CC3C4CC=C5C[C@@H](O)CC[C@]5(C)C4CC[C@]23C)NC(=S)N1 (some centres unmarked) [Compound 7c]	1.7

* * *

Test system: HeLa (cervix) cells
Assay: Growth inhibition assay (NCI protocol), HeLa
Type: cell-based, human
Settings: Homo sapiens, HeLa; 48 h exposure
Strictly below 5 µM in GI50: true. Otherwise: false.

> print(dat)
                                   compound  classification
1  CC1=C2C(CC3C4CC=C5C[C@@H](O)CC[C@]5(C)C4CC[C@]23C)NC(=O)N1 (some centres unmarked)            true
2  C[C@]12CC[C@H](O)CC1=CC[C@@H]1[C@@H]2CC[C@]2(C)C(n3cnc4ccccc43)=CC[C@@H]12 [Galeterone, galeterone, reference compound]           false
3  C[C@]12CCC3C(CC=C4C[C@@H](O)CC[C@@]43C)C1CCC2C1=CC(c2ccccc2)NC(=S)N1 (some centres unmarked)           false
4  C[C@]12CC[C@H](O)CC1=CC[C@@H]1[C@@H]2CC[C@]2(C)C(c3cccnc3)=CC[C@@H]12 [Abiraterone, abiraterone, reference compound]           false
5  C[C@]12CCC3C(CC=C4C[C@@H](O)CC[C@@]43C)C1CCC2C1=CC(c2ccccc2)NC(=O)N1 (some centres unmarked)           false
6  C[C@]12CCC3C(CC=C4C[C@@H](O)CC[C@@]43C)C1CCC2C1=CC(c2ccccc2)NC(=N)N1 (some centres unmarked)           false
7  CC1=C2C(CC3C4CC=C5C[C@@H](O)CC[C@]5(C)C4CC[C@]23C)NC(=S)N1 (some centres unmarked)            true
8  C[C@]12CC[C@H]3[C@@H](CC=C4C[C@@H](O)CC[C@@]43C)[C@@H]1CC[C@@H]2C(=O)/C=C/c1ccccc1            true
